Consider the following compounds; for each one, report its amount complexed and retained by the WS A 201.
Assay: Column retention of amino acid on WS A201
Type: physicochemical
Details: 100 ml solution on 89 ml WS A201 column at 1.5 ml/min, displaced with 100 ml deionized water
Numbers only here, please. The scale is mg.

### Prompt May I ask what amount complexed and retained by the WS A 201 has been recorded for CC(C)C[C@H](N)C(=O)O [unmodified leucine, leucine, reference compound] ?
### Response 41

### Prompt # repeat for CC(CNC(=N)N)C[C@H](N)C(=O)O (some centres unmarked)
### Response 1246

### Prompt # repeat for N[C@@H](CCC(=O)O)C(=O)O [unmodified glutamic acid, glutamic acid, reference compound]
### Response 79

### Prompt # repeat for C[C@H](N)C(=O)O [modified alanine, Protonated alanine]
### Response 845.8

### Prompt # repeat for C[C@H](N)C(=O)O [unmodified alanine, alanine, reference compound]
### Response 37.3
